Measured Rate of inhibition (%), listed per entry for reference.
test system: rat aorta; assay: Inhibitory activity of vasoconstriction: angiotensin II induced constriction of rat aorta rings (Magnus apparatus); assay type: cell-based; settings: compound 1 x 10⁻⁸ M; constriction induced by 3 x 10⁻⁸ angiotensin II
readout label: Rate of inhibition (%)

[
  {
    "compound": "CCCCc1nc(C)c(Cc2ccccc2)c(=O)n1Cc1ccc(-c2ccccc2-c2nnn[nH]2)cc1 [Comparative compound B, reference compound]",
    "readout label": "Rate of inhibition (%)",
    "obs value": 5
  },
  {
    "compound": "CCCc1nc(C)c(Cc2cccc(COC)c2)c(=O)n1Cc1ccc(-c2ccccc2-c2nnn[nH]2)cc1",
    "readout label": "Rate of inhibition (%)",
    "obs value": 100
  },
  {
    "compound": "CCCCc1nc(C)c(Cc2cccc(CO)c2)c(=O)n1Cc1ccc(-c2ccccc2-c2nnn[nH]2)cc1",
    "readout label": "Rate of inhibition (%)",
    "obs value": 95
  },
  {
    "compound": "CCCc1nc(C)c(Cc2ccc(CO)cc2)c(=O)n1Cc1ccc(-c2ccccc2-c2nnn[nH]2)cc1",
    "readout label": "Rate of inhibition (%)",
    "obs value": 78
  },
  {
    "compound": "CCCc1nc(C)c(Cc2ccc(COC)cc2)c(=O)n1Cc1ccc(-c2ccccc2-c2nnn[nH]2)cc1",
    "readout label": "Rate of inhibition (%)",
    "obs value": 36
  },
  {
    "compound": "CCCc1nc(C)c(Cc2cccc(CO)c2)c(=O)n1Cc1ccc(-c2ccccc2-c2nnn[nH]2)cc1",
    "readout label": "Rate of inhibition (%)",
    "obs value": 100
  },
  {
    "compound": "CCCCc1nc(C)cc(=O)n1Cc1ccc(-c2ccccc2-c2nnn[nH]2)cc1 [Comparative compound A, reference compound]",
    "readout label": "Rate of inhibition (%)",
    "obs value": 8
  }
]
